Assay: CCTE_Shafer_MEA_acute_per_network_burst_spike_number_mean: CCTE's Neural Acute Assay for Average Number of Spikes in a Network Burst, Shafer Lab (AID 2284019)
Activity calls are given as the source filed them. The calls were made as follows: active = hit-call score of the fitted dose curve at least 0.9, where 1 is the maximum; inactive = score below 0.9.
Write down one outcome, taken from 1 (active), 0 (inactive)

# count of solved cases: 5
- COMPOUND: "COc1cc2c(c(OC)c1OC)-c1ccc(OC)c(=O)cc1[C@@H](NC(C)=O)CC2"
  CLASS ASSIGNMENT: 0
- COMPOUND: "CCc1ccc(O)c(C(C)(C)C)c1"
  CLASS ASSIGNMENT: 1
- COMPOUND: "COCc1nnc(-c2ccc[n+]([O-])c2)n1-c1c(Cl)c(Cl)cc2[nH]c(=O)c(=O)[nH]c12"
  CLASS ASSIGNMENT: 1
- COMPOUND: "c1ccc(C(O[C@@H]2CCCN(CCc3ccc4c(c3)OCO4)C2)c2ccccc2)cc1"
  CLASS ASSIGNMENT: 1
- COMPOUND: "CCCCC(CC)C(=O)OCCOCCOCCOC(=O)C(CC)CCCC (stereo not given)"
  CLASS ASSIGNMENT: 0

In: Would you mind telling me which call this test gave `c1ccc2cc3ccccc3cc2c1` ?
Out: 0

In: Would you mind telling me which call this test gave `COc1cc(C(C)C)c2c(c1)S(=O)(=O)N(COc1cc(=O)n3cccc(OCCN4CCCCC4)c3n1)C2=O` ?
Out: 0

In: Would you mind telling me which call this test gave `CCCc1ccccc1` ?
Out: 0

In: Would you mind telling me which call this test gave `CC(C)C(=O)Nc1ccc([N+](=O)[O-])c(C(F)(F)F)c1` ?
Out: 0

In: Would you mind telling me which call this test gave `OCc1ccccc1` ?
Out: 0

====

Molecular target: human Adenosine A1 Receptor (AdoRA1), ADORA1 (gene 134) (UniProt P30542)
Sequence (P30542 whole entry, looked up): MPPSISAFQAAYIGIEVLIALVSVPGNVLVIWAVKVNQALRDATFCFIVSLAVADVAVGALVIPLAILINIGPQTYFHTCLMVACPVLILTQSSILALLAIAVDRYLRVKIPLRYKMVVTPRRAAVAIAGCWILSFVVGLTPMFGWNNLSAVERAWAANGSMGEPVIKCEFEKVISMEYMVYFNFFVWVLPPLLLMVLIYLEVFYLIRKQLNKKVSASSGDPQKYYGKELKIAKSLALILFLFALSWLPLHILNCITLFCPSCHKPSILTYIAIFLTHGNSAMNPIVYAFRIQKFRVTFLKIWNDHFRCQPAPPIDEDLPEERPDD
Experiment: NVS_GPCR_hAdoRA1: NovaScreen (NVS) G Protein-Coupled Receptor Assay for human Adenosine A1 Receptor (AdoRA1) (AID 2283254)
Records with an inconclusive call do not appear. The source made the active and inactive calls. Rule for the calls: active = hit-call score of the fitted dose curve at least 0.9, where 1 is the maximum; inconclusive = response in the unintended direction; inactive = score below 0.9.
Write down one outcome, taken from active, inactive

# count of solved cases: 4
- STRUCTURE AS SMILES: "NC(=O)N1c2ccccc2C=Cc2ccccc21"
  CLASS ASSIGNMENT: "active"
- STRUCTURE AS SMILES: "CCn1nc(C)c2c1C(=O)NCC(c1ccc(O)cc1)=N2"
  CLASS ASSIGNMENT: "inactive"
- STRUCTURE AS SMILES: "COCc1nnc(-c2ccc[n+]([O-])c2)n1-c1c(Cl)c(Cl)cc2[nH]c(=O)c(=O)[nH]c12"
  CLASS ASSIGNMENT: "active"
- STRUCTURE AS SMILES: "CC(C)C(=O)Nc1ccc([N+](=O)[O-])c(C(F)(F)F)c1"
  CLASS ASSIGNMENT: "inactive"

In: Would you mind telling me which call this test gave `O=S(=O)(O)c1ccc(N=Nc2c(O)ccc3cc(S(=O)(=O)O)ccc23)cc1` ?
Out: inactive

In: Would you mind telling me which call this test gave `C=CCc1cc(S(=O)(=O)c2ccc(O)c(CC=C)c2)ccc1O` ?
Out: active

====

Read-out: succinate dehydrogenase complex iron sulfur subunit B (SDHB), SDHB (gene 6390)
Test: LTEA_HepaRG_SDHB: Life Technologies and Expression Analysis (LTEA) Assay for succinate dehydrogenase complex iron sulfur subunit B (SDHB) using HepaRG (AID 2283528)
Details: mRNA level, 48 h; actives raise or lower the signal
Activity calls are given as the source filed them. Rule for the calls: active = hit-call score of the fitted dose curve at least 0.9, where 1 is the maximum; inactive = score below 0.9.
Write down one outcome, taken from active, inactive

# count of solved cases: 2
- STRUCTURE AS SMILES: "NC(N)=O"
  CLASS ASSIGNMENT: "inactive"
- STRUCTURE AS SMILES: "CCCCCCCCCC"
  CLASS ASSIGNMENT: "inactive"

In: Would you mind telling me which call this test gave `CCCCN1C(=O)[C@@H]([C@H](O)C2CCCCC2)NC(=O)C12CCN(Cc1ccc(Oc3ccc(C(=O)O)cc3)cc1)CC2` ?
Out: active

In: Would you mind telling me which call this test gave `CC[C@H](C)C(=O)O[C@H]1C[C@H](O)C=C2C=C[C@H](C)[C@H](CC[C@@H](O)C[C@@H](O)CC(=O)O)[C@H]21` ?
Out: inactive

In: Would you mind telling me which call this test gave `CCc1ccc(O)c(C(C)(C)C)c1` ?
Out: inactive

====

Experiment: BSK_KF3CT_SRB: Viability Assessment in the BioMAP Diversity Plus: KF3CT Assay (AID 2283069);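 also: total protein by sulforhodamine B staining as a cytotoxicity measure; read 24 h after compound addition; fitted for both signal gain and loss against DMSO baseline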
Conditions: primary human keratinocytes with fibroblasts
The source made the active and inactive calls. The calls were made as follows: active = hit-call score of the fitted dose curve at least 0.9, where 1 is the maximum; inactive = score below 0.9.
Write down one outcome, taken from active, inactive

# count of solved cases: 2
- MOLECULE: "NC(=O)N(O)[C@@H]1COc2cc(OCc3ccccc3)ccc21"
  CLASS ASSIGNMENT: "inactive"
- MOLECULE: "CCc1ccc(O)c(C(C)(C)C)c1"
  CLASS ASSIGNMENT: "active"

In: Would you mind telling me which call this test gave `OC(O)(C(F)C(O)(O)C(F)(F)F)C(F)(F)F` ?
Out: inactive

In: Would you mind telling me which call this test gave `FC(F)=C(F)C(F)(F)C(F)(F)C(F)(F)C(F)(F)C(F)(F)C(F)(F)F` ?
Out: inactive

In: Would you mind telling me which call this test gave `CCCc1ccccc1` ?
Out: inactive

In: Would you mind telling me which call this test gave `CC(C)C(=O)Nc1ccc([N+](=O)[O-])c(C(F)(F)F)c1` ?
Out: inactive

In: Would you mind telling me which call this test gave `CCCCCCCCN(C)C` ?
Out: inactive

In: Would you mind telling me which call this test gave `CCCCCCOC(=O)CC(CC(=O)OCCCCCC)(OC(=O)CCC)C(=O)OCCCCCC` ?
Out: inactive

====

Read-out: Interleukin 17A (IL17A), IL17A (gene 3605)
Assay: BSK_BT_xIL17A: BioMAP Diversity Plus: BT Assay for Interleukin 17A (IL17A) Biomarker Activity (AID 2284229)
Details: primary human B cells with PBMC
Activity calls are given as the source filed them. How the source made its calls: active means hit-call score of the fitted dose curve at least 0.9, where 1 is the maximum; inactive means score below 0.9.
QUANTITY NAME: outcome

- COMPOUND: "C[Si](C)(C)C(F)(F)C(F)(F)C(F)(F)F"
  RESULT: "inactive"
- COMPOUND: "FC(F)=C(F)C(F)(F)C(F)(F)C(F)(F)C(F)(F)C(F)(F)C(F)(F)F"
  RESULT: "inactive"
- COMPOUND: "FC(F)(F)C(F)(F)C(F)(F)C(F)(F)C(F)(F)C(F)(F)I"
  RESULT: "inactive"
- COMPOUND: "FC(F)C(F)(F)COCC1CO1 (configuration not stated)"
  RESULT: "inactive"
- COMPOUND: "O=C(Cl)C(F)(F)C(F)(F)C(F)(F)C(=O)Cl"
  RESULT: "inactive"
- COMPOUND: "FC(F)(F)COC(OCC(F)(F)F)OCC(F)(F)F"
  RESULT: "inactive"

Turning now to a further record.
In: I'd like to know its outcome. The compound in question is `OCCC(F)(F)C(F)(F)C(F)(F)C(F)(F)F`
Out: inactive

====

Test: CCTE_Shafer_MEA_dev_network_spike_duration_std: CCTE's Neural Network Formation Assay for Standard Deviation of Network Spike Duration, Shafer Lab (AID 2284052);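 also: area under curve of spike duration SD across recording days 5 to 12; hits are decreases in network spike duration SD versus DMSO vehicle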
Active and inactive are the calls of the source. The calls were made as follows: active = hit-call score of the fitted dose curve at least 0.9, where 1 is the maximum; inactive = score below 0.9.
Write down one outcome, taken from active, inactive

- STRUCTURE AS SMILES: "CCOc1ccc2[nH]cc(C(=O)NCc3ccccc3)c(=O)c2n1"
  CLASS ASSIGNMENT: "inactive"
- STRUCTURE AS SMILES: "COc1cc2c(c(OC)c1OC)-c1ccc(OC)c(=O)cc1[C@@H](NC(C)=O)CC2"
  CLASS ASSIGNMENT: "active"
- STRUCTURE AS SMILES: "Cn1cc[nH]c1=S"
  CLASS ASSIGNMENT: "inactive"
- STRUCTURE AS SMILES: "NCC(F)(F)C(F)(F)C(F)(F)C(F)(F)F"
  CLASS ASSIGNMENT: "inactive"
- STRUCTURE AS SMILES: "FC(F)(F)COC(OCC(F)(F)F)OCC(F)(F)F"
  CLASS ASSIGNMENT: "inactive"

Moving on to another compound below.
In: Would you mind telling me which call this test gave `OCCC(F)(F)C(F)(F)C(F)(F)C(F)(F)F` ?
Out: inactive

====

Read-out: Pselectin, SELP (gene 6403)
Assay: BSK_4H_Pselectin: BioMAP Diversity Plus: 4H Assay for Pselectin Biomarker Activity (AID 2283026)
Conditions: primary human endothelial cells (HUVEC); actives raise or lower the signal
Description: BSK_4H is a cell-based, multiplexed-readout assay that uses umbilical vein endothelium, a human vascular primary cell, with measurements taken at 24 hours after chemical dosing in a 96-well plate.BSK_4H_Pselectin is an assay component measured in the BSK_4H assay. It measures P-Selectin antibody related to regulation of gene expression using ELISA technology.Data from the assay component BSK_4H_Pselectin was analyzed into 1 assay endpoint. […]
Active and inactive are the calls of the source. The calls were made as follows: active = hit-call score of the fitted dose curve at least 0.9, where 1 is the maximum; inactive = score below 0.9.
QUANTITY NAME: outcome

Before answering, review these 5 worked examples.
- STRUCTURE AS SMILES: "OCCNCCO"
  outcome: "inactive"
- STRUCTURE AS SMILES: "COCc1nnc(-c2ccc[n+]([O-])c2)n1-c1c(Cl)c(Cl)cc2[nH]c(=O)c(=O)[nH]c12"
  outcome: "inactive"
- STRUCTURE AS SMILES: "CCCCOC(=O)c1ccccc1"
  outcome: "inactive"
- STRUCTURE AS SMILES: "Cn1cc[nH]c1=S"
  outcome: "inactive"
- STRUCTURE AS SMILES: "CCCCCCCCCCCCCCCCOS(=O)(=O)O"
  outcome: "inactive"

Hi, could you look up outcome for each item in my list?
1. C[C@]12C=CC(=O)C=C1CC[C@H]1[C@@H]3C[C@@H](O)[C@](O)(C(=O)CO)[C@@]3(C)C[C@H](O)[C@@]12F
2. CCCCCCCCCC

Out:
inactive
inactive
